Origin of measurements: the supplement of paper PMC9170038

Tested on: K4 kissing-loop RNA reporter;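 further: bound reporter read as fluorescence of individual clusters on recovered sequencing chips by microscopy, with normalized cluster intensities fitted with a binding model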
Test: apparent KD of K4 kissing-loop reporter; higher = weaker reporter binding
Settings: Eterna round: R107; input ligand: tryptophan 2.4 mM
outcome-measure: apparent KD of K4 kissing-loop reporter (µM)

entry-sequence	observed-value
CUCGUGGGUUUGAGAGGGCUUGUGGGAAGUGAGGAUAUUUAGGGAGAAAGAAGGCACUAUAAAAUAUAGUGAUGUUAUAUAAGGG [SSFMNA.M]	0.347
UAUUAAUUGUCAGGAUAUCGAAAUCGAGUGAUGUUCGUAAAUUAAUUAUUAUUAAUAAUAUUUAAACGAGAAGGGACAUUAUUUA [JR_SSFMNB_Sub001]	0.442
AGUGUUGUAUGGCGGUUUGUCACUUAGGAUCAGGAUAUAUAAACAAAUAGAAGGGAUGGCGGAGUGAUGUUCCGCCGGCCGCCAU [FMN A Exl V7]	0.121
CCGUGGAGUGAUGUUCCACGUUCUACGGAUACCAGCCACGCCAGCGGCCCUUGGCAGCCGCACCUUGCAGUGAUGUUGUGAGGCU [Same State Theophylline A GF 5]	0.302
UGUCAUUGGUCGGCCGCCACUUUAUAUGGAGUGAUGUUUUGUAAAUUGUGUUGAAAGGUGUGGUAAAGGACCGGGACCGAUGACU [FiskerMod 26 - Jieux - Same State - Tryptophan B]	0.651
GAUUUAGAGGCGGCCGCCACUAGUGAUGUUAGUGAUGUUUGAUACUGAAUAUAUCUGCGUUUAGAUAGGACCGGGCCAGAUGGUG [ddcmullin]	0.197

----------
Tested on: MS2 coat protein
Test: apparent KD of MS2 coat protein; designed switch direction (-1 OFF switch, 1 ON switch): -1; higher = weaker reporter binding
Conditions: input ligand: FMN 200 uM
Tag: t if measured apparent KD of MS2 coat protein is not below 100 nM, f if it is.

entry-sequence	qualitative-label
ACGCCGCAAGGAUAUACUUGCGGUGAUGUUCGAGUUCUUCUACUUGAGGAUCACCCAAGUAGAAGGUGCAAAAC [jl-ex2.4.60 ViennaUCT mod] (Eterna round: R97, puzzle: Exclusion 2)	f
CAGCGACAUGAGGAUCACCCAUGUGGCUUCGUUCCCGCUGGCAAGGAUAUCCAGUCUUCGUGAGAGGAGAAGGUGCAAAAUAAG [Atveso] (Eterna round: R96, puzzle: Exclusion NG 3)	f
CUUGUGUGAGGAUAUGAAUUGCCUGGUCAUCCAGGCUCCUGUCAGAAGGCACAUGAGGAUCACCCAUGUGGGCA [Biatire] (Eterna round: R97, puzzle: Exclusion 4)	t
UGAUUGUUUACCAGGUUAUACAUGAGGAUCACCCAUGUAGAUCCUACGUGCGCGUUAUACCGCUCGUCUUAUUCCCA [Sensor-V1 #77] (Eterna round: R97, puzzle: Sensor, turn-off variant 1)	f
AUAAUGUAAGGAUAUCAGUCGUACAGCUGCGGCUGUACGACUGAGAAGGUACAUGAGGAUCACCCAUGUGAUCA [E4/8-A3] (Eterna round: R97, puzzle: Exclusion 4)	t

----------
System: MS2 coat protein
Test: apparent KD of MS2 coat protein; designed switch direction (-1 OFF switch, 1 ON switch): -1; higher = weaker reporter binding
Conditions: Eterna round: R95; input ligand: none

entry-sequence	apparent KD of MS2 coat protein / nM
AAAAAACAAGGAUAUACGAAGGAGGAUUAUCUUAAUUUUUGACAUGAGGAUCACCCAUGUAGAAGGUGUUAAAA [JR_Exclusion2_Sub009] (puzzle: Exclusion 2)	48.4
ACGAAACAUGAGGAUCACCCAUGUGAGGAUAUGUAAAUAGUAAACAAAUAAGAAAUAAACAGAAGGCACACAGG [JR_Exclusion1_Sub004] (puzzle: Exclusion 1)	28.2
ACAAGCUUUUUGUUCGUCUUAUAAUAUUCAAUAAGGAUAACAUGAGGAUCACCCAUGUAACAAAGACGGACUCAUGU [Sesor Array 15 - Jieux - Sensor v3, turn-off variant 2] (puzzle: Sensor v3, turn-off variant 2)	13
CUCCUCGUGGCGCCUAAACACAUGAGGAUCACCCAUGUACAGGCUUUUUGCCGUCUUACAAUAAAACCGAGGAUACG [Inveon] (puzzle: Sensor v3, turn-off variant 1)	20.4
UUUUUCGAACAAGCUACGUACAUGAGGAUCACCCAUGUUGGUAGAUUUGAGUAGGUUUGGAUGGAAGCUCGUCUUAU [JR_SV3TOV1_Sub083] (puzzle: Sensor v3, turn-off variant 1)	21.4
GAUUAUGCGAGCUUUAGGGACAUGAGGAUCACCCAUGUUCGUCUUAUUGAUCUGGAUGCACUAACAUACCUAAAUCU [JMF 27] (puzzle: Sensor v3, turn-off variant 1)	49.3
CGUGUCUUUUACGUGAGUGGUGGGUGCAACAGGUGGGUUACAUGAGGAUCACCCAUGUGCUCACUUGCUCGUCUUUU [Grok-var2-09] (puzzle: Sensor v3, turn-off variant 2)	58.1
GGUCAAGAACAGAUCCGCGCUGUCAUUGACCGCUCAUUUACAUGAGGAUCACCCAUGUUUUUUGCUUGUCUUGUUAC [Edrama] (puzzle: Sensor v3, turn-off variant 2)	18.2
AUGAGACAUGAGGAUCACCCAUGUGAGGAUAUGUAUGGAUGAAGGAAAGAAUGAGAGAACAGAAGGCACGAAGA [JR_Exclu1_Sub064] (puzzle: Exclusion 1)	138
UAUAGACAUGAGGAUCACCCAUGUGAGGAUAUGUACAACAACAAGCCGGAAGCGGAAUACAGAAGGCACAAAUA [JR_Exclusion1_Sub029] (puzzle: Exclusion 1)	51.4
